- test-method-notes: Lipid clearance: % dose remaining in liver of CD-1 mice
- Assay type: in vivo
- cond: intravenous, 0.5 mg/kg, CD-1 mouse, Table 8a
Catalogue of compounds with associated % Dose Remaining 6 hr
endpoint-label: % Dose Remaining 6 hr

[[record]]
compound = "CCCCCCCCCN(CCCC(=O)OCCCCC)CCCC1CCN(C(=O)CCN(CCCCCCCCC)CCN(CCCCCCCCC)CCCCCCCCC)CC1 [Compound 84]"
assay_result = "21.23%"

[[record]]
compound = "CCCCCCCCCN(CCCCCCCCC)CCC1CCN(C(=O)CN(CCCCCCCCC)CCN(CCCCCCCCC)CCCCCCCCC)C1 (stereo not shown) [Compound 69]"
assay_result = "59.21%"

[[record]]
compound = "CCCCCCCCCN(CCCCCCCCC)CCC1CCCN(C(=O)CN(CCCCCCCCC)CCN(CCCCCCCCC)CCCCCCCCC)C1 (stereo not shown) [Compound 73]"
assay_result = "68.53%"

[[record]]
compound = "CCCCCCCCCN(CCCCCCCCC)CCCC1CCN(C(=O)CCN(CCCCCCCCC)CCN(CCCCCCCCC)CCCCCCCCC)CC1 [Compound 85]"
assay_result = "52.40%"

[[record]]
compound = "CCCCCCCCCN(CCCC(=O)OCCCCC)CCC1CCCN(C(=O)CN(CCCCCCCCC)CCN(CCCCCCCCC)CCCCCCCCC)C1 (stereo not shown) [Compound 80]"
assay_result = "23.78%"

[[record]]
compound = "CCCCCCCCCN(CCCCCCCCC)CCN(CCCCCCCCC)CC(=O)N1CCC(CN(CCCCCCCCC)CCCCCCCCC)C1 (stereo not shown) [Compound 70]"
assay_result = "56.30%"

[[record]]
compound = "CCCCCCCCCN(CCCOC(=O)CCCCC)CCC(=O)N1CCN(C(=O)CCN(CCCCCCCCC)CCN(CCCCCCCCC)CCCCCCCCC)CC1 [Compound 86]"
assay_result = "0.16%"


====

Measured PDI, listed per entry.
- test-method-notes: Particle size and polydispersity index of nanoparticle compositions (Zetasizer Nano ZS)
- Format: physicochemical
- cond: Table 1c; nanoparticle compositions
endpoint-label: PDI

[[record]]
compound = "CCCCCCCCCCCC(=O)N1CCN(C(=O)CN(CCCCCCCCC)CCN(CCCCCCCCC)CCCCCCCCC)CC1 [Compound 143]"
assay_result = 0.21

[[record]]
compound = "CCCCCCCCCN(CCCCCCCCC)CCN(CCCCCCCCC)CC(=O)N1CCC(CCOC(=O)CN(CCCCCCCCC)CCCCCCCCC)CC1 [Compound 114]"
assay_result = 0.23

[[record]]
compound = "CCCCCCCCCN(CCCCCCCCC)CCN(CCCCCCCCC)CC(=O)N1CCN(C(=O)C(C)N(CCCCCCCCC)CCCC(=O)OCCCCC)CC1 (stereo not shown) [Compound 111]"
assay_result = 0.21

[[record]]
compound = "CCCCCCCCCCCCCCN(CCCCCCCC(=O)OCCCCC)CCC1CCN(C(=O)CN(CCCCCCCCC)CCN(CCCCCCCCC)CCCCCCCCC)C1 (stereo not shown) [Compound 124]"
assay_result = 0.21

[[record]]
compound = "CCCCCCCCCCCCCCN(CCCOC(=O)CCCCCCCCC)CCC1CCN(C(=O)CN(CCCCCCCCC)CCN(CCCCCCCCC)CCCCCCCCC)C1 (stereo not shown) [Compound 126]"
assay_result = 0.24

[[record]]
compound = "CCCCCCCCCCCCCCN(CCCCCCCCCCCC(=O)OC)CCC1CCN(C(=O)CN(CCCCCCCCC)CCN(CCCCCCCCC)CCCCCCCCC)C1 (stereo not shown) [Compound 127]"
assay_result = 0.20

[[record]]
compound = "CCCCCCCCCN(CCCCCCCCC)CCN(CCCCCCCCC)CC(=O)OC1CCC(OC(=O)CN(CCCCCCCCC)CCCCCCCCC)CC1 (stereo not shown) [Compound 115]"
assay_result = 0.16

[[record]]
compound = "CCCCCCCCCCCCCCN(CCCCCCCCCCCC(=O)OC)CC(=O)N1CCN(C(=O)CN(CCCCCCCCC)CCN(CCCCCCCCC)CCCCCCCCC)CC1 [Compound 117]"
assay_result = 0.20

[[record]]
compound = "CCCCCCCCCCCCCCN(CCCOC(=O)CCCCCCCCC)CC(=O)N1CCN(C(=O)CN(CCCCCCCCC)CCN(CCCCCCCCC)CCCCCCCCC)CC1 [Compound 89]"
assay_result = 0.20

[[record]]
compound = "CCCCCCCCCN(CCCCCCCCC)CCN(CCCCCCCCC)CC(=O)N1CCC(COC(=O)CN(CCCCCCCCC)CCCCCCCCC)C1 (stereo not shown) [Compound 102]"
assay_result = 0.23

[[record]]
compound = "CCCCCCCCCCCCCCN(CCCCCCCC(=O)OCCCCC)CC(=O)N1CCN(C(=O)CN(CCCCCCCCC)CCN(CCCCCCCCC)CCCCCCCCC)CC1 [Compound 90]"
assay_result = 0.19

[[record]]
compound = "CCCCCCCCCN(CCCCCCCCC)CCN(CCCCCCCCC)CC(=O)N1CCC(CCOC(=O)CN(CCCCCCCCC)CCCCCCCCC)C1 (stereo not shown) [Compound 103]"
assay_result = 0.17

[[record]]
compound = "CCCCCCCCCCCCCCN(CCCCCC(=O)OCCCCCCC)CC(=O)N1CCN(C(=O)CN(CCCCCCCCC)CCN(CCCCCCCCC)CCCCCCCCC)CC1 [Compound 91]"
assay_result = 0.21


====

- test-method-notes: Encapsulation efficiency of RNA (QUANT-IT RIBOGREEN RNA assay)
- Assay type: physicochemical
- cond: summary of Table 1
endpoint-label: encapsulation efficiency ranking amongst the compositions of Tables 1 and 1a

[[record]]
molecule = "CCCCC/C=C\\C/C=C\\CCCCCCCCN(CCCCCCCC/C=C\\C/C=C\\CCCCC)CCN(CCCCCCCC/C=C\\C/C=C\\CCCCC)CCN1CCNCC1 [Compound 41]"
assay_result = "highest"

[[record]]
molecule = "CCCCCCCCCCCCN(CCCCCCCCCCCC)CCN(CCCCCCCCCCCC)CCN1CCNCC1 [Compound 37]"
assay_result = "highest"

[[record]]
molecule = "CCCCCCCCCN(CCCCCCCCC)CCN(CCCCCCCCC)CCN1CCNCC1 [Compound 36]"
assay_result = "highest"

[[record]]
molecule = "CCCCCCCCCCCCN(CCCCCCCCCCCC)CCN1CCN(CCN(CCCCCCCCCCCC)C(=O)CN(CCCCCCCCCCCC)CCCCCCCCCCCC)CC1 [Compound 1]"
assay_result = "lowest"

[[record]]
molecule = "CCCCC/C=C\\CCCCCN(CCCCCCCCCCCC)CCN1CCN(CCN(CCCCCCCCCCCC)CCN(CCCCCCCCCCCC)CCCCCCCCCCCC)CC1 [Compound 24]"
assay_result = "lowest"

[[record]]
molecule = "CCCCCCCC/C=C\\CCCCCCCCN(CCCCCCCC/C=C\\CCCCCCCC)CCN(CCCCCCCC/C=C\\CCCCCCCC)CCN1CCNCC1 [Compound 40]"
assay_result = "highest"


====

- test-method-notes: Lipid clearance: % dose remaining, Tables 7c and 8b-8e (species not given)
- Format: in vivo
- cond: Table 8d
Listed compounds paired with reported % Dose Remaining (liver, 24 h)
endpoint-label: % Dose Remaining (liver, 24 h) (%)

[[record]]
compound = "CCCCCCCCCOC(=O)CCCCCCCN(CCCCCCCC(=O)OC(CCCCCCCC)CCCCCCCC)CCCCC(=O)OC(C)CC(C)OC(=O)CCCCN(CCCCCCCC(=O)OCCCCCCCCC)CCCCCCCC(=O)OC(CCCCCCCC)CCCCCCCC (centres unmarked)"
scale_unit = "%"
assay_result = 42.86

[[record]]
compound = "CCCCCCCCCOC(=O)CCCCCCCN(CCCCCCCC(=O)OC(CCCCCCCC)CCCCCCCC)CCCCC(=O)OCCOC(=O)CCCCN(CCCCCCCC(=O)OCCCCCCCCC)CCCCCCCC(=O)OC(CCCCCCCC)CCCCCCCC"
scale_unit = "%"
assay_result = 18.21

[[record]]
compound = "CCCCCCCCCOC(=O)CCCCCCCN(CCCCCCCC(=O)OC(CCCCCCCC)CCCCCCCC)CCCCC(=O)N1CCN(C(=O)CCCCN(CCCCCCCC(=O)OCCCCCCCCC)CCCCCCCC(=O)OC(CCCCCCCC)CCCCCCCC)CC1"
scale_unit = "%"
assay_result = 2.23

[[record]]
compound = "CCCCCCCCCOC(=O)CCCCCCCN(CCCCCCCC(=O)OC(CCCCCCCC)CCCCCCCC)CCCCC(=O)N(CC)CCN(CC)C(=O)CCCCN(CCCCCCCC(=O)OCCCCCCCCC)CCCCCCCC(=O)OC(CCCCCCCC)CCCCCCCC"
scale_unit = "%"
assay_result = 2.51

[[record]]
compound = "CCCCCCCCCN(CCCCCCCCC)CCN(CCCCCCCCC)CC(=O)N1CCN(C(=O)CN(CCCCCCCCC)CCCCCCCCC)CC1"
scale_unit = "%"
assay_result = 43.02

[[record]]
compound = "CCCCCCCCCOC(=O)CCCCCCCN(CCCCCCCC(=O)OC(CCCCCCCC)CCCCCCCC)CCCCC(=O)N(C)CCN(C)C(=O)CCCCN(CCCCCCCC(=O)OCCCCCCCCC)CCCCCCCC(=O)OC(CCCCCCCC)CCCCCCCC"
scale_unit = "%"
assay_result = 1.87

[[record]]
compound = "CCCCCCCCCN(CCCCCCCCC)CCN(CCCCCCCCC)CC(=O)OC(C)C(C)OC(=O)CN(CCCCCCCCC)CCCCCCCCC (centres unmarked)"
scale_unit = "%"
assay_result = 117.31

[[record]]
compound = "CCCCCCCCCN(CCCCCCCCC)CCN(CCCCCCCCC)CC(=O)OC(C)CC(C)OC(=O)CN(CCCCCCCCC)CCCCCCCCC (centres unmarked)"
scale_unit = "%"
assay_result = 91.63

[[record]]
compound = "CCCCCC=CCC=CCCCCCCCCC(CCCCCCCCC=CCC=CCCCCC)OC(=O)CCCN(C)C (centres unmarked) [MC3, reference compound]"
scale_unit = "%"
assay_result = 54.04

[[record]]
compound = "CCCCCCCCCOC(=O)CCCCCCCN(CCCCCCCC(=O)OC(CCCCCCCC)CCCCCCCC)CCCCC(=O)OC(C)C(C)OC(=O)CCCCN(CCCCCCCC(=O)OCCCCCCCCC)CCCCCCCC(=O)OC(CCCCCCCC)CCCCCCCC (centres unmarked)"
scale_unit = "%"
assay_result = 49.08

[[record]]
compound = "CCCCCCCCCOC(=O)CCCCCCCN(CCCCCCCC(=O)OC(CCCCCCCC)CCCCCCCC)CCCCC(=O)N(C)CCCN(C)C(=O)CCCCN(CCCCCCCC(=O)OCCCCCCCCC)CCCCCCCC(=O)OC(CCCCCCCC)CCCCCCCC"
scale_unit = "%"
assay_result = 1.64

